Hi there, I'd appreciate the recorded pEC50 for every entry that follows.
Target: ER-alpha (WT) (Homo sapiens (Human), UniProt P03372)
Sequence (P03372 whole entry): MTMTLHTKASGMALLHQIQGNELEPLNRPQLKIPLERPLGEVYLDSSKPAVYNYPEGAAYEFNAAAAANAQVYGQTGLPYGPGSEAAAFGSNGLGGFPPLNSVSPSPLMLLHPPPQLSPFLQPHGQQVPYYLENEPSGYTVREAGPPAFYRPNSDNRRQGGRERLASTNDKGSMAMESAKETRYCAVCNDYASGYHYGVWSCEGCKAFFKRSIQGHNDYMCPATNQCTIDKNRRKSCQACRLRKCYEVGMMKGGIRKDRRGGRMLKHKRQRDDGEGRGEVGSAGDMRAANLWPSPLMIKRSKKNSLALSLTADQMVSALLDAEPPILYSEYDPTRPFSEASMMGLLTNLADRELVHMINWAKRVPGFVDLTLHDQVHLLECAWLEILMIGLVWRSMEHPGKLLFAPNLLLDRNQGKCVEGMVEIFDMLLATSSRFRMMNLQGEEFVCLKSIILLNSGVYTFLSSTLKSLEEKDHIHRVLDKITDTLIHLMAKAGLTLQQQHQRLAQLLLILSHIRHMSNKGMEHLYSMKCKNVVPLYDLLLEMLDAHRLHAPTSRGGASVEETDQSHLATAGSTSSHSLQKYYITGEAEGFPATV
Assay Notes: Breast Cancer Cell ERa High Content Fluorescence Imaging Degradation Assay (ER-alpha MCF7 HCS)
Condition Label: MCF7 breast cancer cells, 4 hours incubation; inflexion point of curve
Give bare numbers, as −log10 of the molar value.

Consider the reported pEC50 for these molecules:
C[C@@H](COc1ccc([C@@H]2c3ccc(O)cc3CC[C@@H]2c2ccccc2)cc1)N1CC[C@@H](CF)C1 [Compound 123] | 7.77
N#Cc1ccc([C@H]2CCc3cc(O)ccc3[C@H]2c2ccc(OCCN3CC(CF)C3)cc2)cc1 [Compound 133] | 7.28
Oc1ccc2c(c1)CC[C@H](c1ccccc1)[C@@H]2c1ccc(NCCN2CC(CF)C2)cc1 [Compound 137] | 6.73

Would you mind listing pEC50 for each of the following molecules?
1. Oc1ccc2c(c1)CCC1(CCCC1)[C@@H]2c1ccc(OCCN2CC(CF)C2)cc1 [Compound 122]
2. Oc1ccc2c(c1)CC[C@@H](c1ccccc1)[C@H]2c1ccc(OCCN2CC(CCl)C2)cc1 [Compound 113]

1. 9.35
2. 9.75

----------
Hi there, I'd appreciate the recorded EC50 for every entry that follows.
Target: ER-alpha (WT) (Homo sapiens (Human), UniProt P03372)
Assay Notes: Breast Cancer Cell ERa High Content Fluorescence Imaging Degradation Assay (ER-alpha MCF7 HCS)
Condition Label: MCF7 breast cancer cells, 4 hours incubation; inflexion point of curve
Returns: string containing the number followed by the unit.

Consider the reported EC50 for these compounds:
Oc1ccc2c(c1)CC[C@H](c1ccccc1)[C@@H]2c1ccc(OCCN2CC(CCl)C2)cc1 [Compound 112] | 50.9 nM
Oc1ccc2c(c1)CC[C@@H](c1ccccc1)[C@H]2c1c(F)cc(OCCN2CC(CF)C2)cc1F [Compound 104] | 15.6 nM
Oc1ccc2c(c1)CC[C@H](C1CCC(F)(F)CC1)[C@@H]2c1ccc(OCCN2CC(CF)C2)cc1 [Compound 110] | 0.177 nM

Then this compound:
Form field EC50, entry Oc1ccc2c(c1)CC[C@H](c1ccccc1)[C@@H]2c1ccc(NC2CN(CCCF)C2)cc1 [Compound 132] : 0.029 nM
